test.system: MAO-A (Homo sapiens)
Construct: purchased Sigma-Aldrich
Sequence (P21397 1-527): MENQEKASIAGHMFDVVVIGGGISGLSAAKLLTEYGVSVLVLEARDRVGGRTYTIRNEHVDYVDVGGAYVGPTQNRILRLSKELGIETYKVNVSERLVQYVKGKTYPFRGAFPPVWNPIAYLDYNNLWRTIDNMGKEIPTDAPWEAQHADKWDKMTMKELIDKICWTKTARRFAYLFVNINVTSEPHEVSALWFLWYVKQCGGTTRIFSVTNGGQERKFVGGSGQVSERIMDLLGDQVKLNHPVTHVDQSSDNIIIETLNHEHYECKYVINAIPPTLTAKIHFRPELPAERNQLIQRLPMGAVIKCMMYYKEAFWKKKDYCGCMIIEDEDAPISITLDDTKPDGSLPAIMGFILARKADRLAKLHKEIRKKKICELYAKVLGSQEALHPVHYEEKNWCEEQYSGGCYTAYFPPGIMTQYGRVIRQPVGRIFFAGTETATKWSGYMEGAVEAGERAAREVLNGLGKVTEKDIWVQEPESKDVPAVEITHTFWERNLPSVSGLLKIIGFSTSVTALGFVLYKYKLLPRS
assay.method.text: continuous spectrophotometric MAO-A inhibition assay
Assay type: biochemical
experimental.conditions: 100 µM, 1h
MAO-A inhibition % values by entry
property.label: MAO-A inhibition % (%)

# given.smiles, reading
records = [
    ("CC(=O)Oc1ccc2cc(-c3ccc(F)cc3)c(=O)oc2c1", 0.00),
    ("CC(=O)Oc1cccc2cc(-c3ccc(N(C)C)cc3)c(=O)oc12", 0.00),
    ("CC(=O)Oc1ccc2cc(-c3ccccc3)c(=O)oc2c1", 0.00),
    ("O=c1oc2cc(O)ccc2cc1-c1ccc(F)cc1", 12.56),
    ("COc1cc(OC)cc(-c2cc3cc(Cl)cc(Cl)c3oc2=O)c1", 0.00),
    ("O=c1oc2ccccc2cc1-c1cccc(O)c1", 4.14),
    ("O=c1oc2ccc(O)cc2cc1-c1cccc(O)c1", 13.11),
    ("COc1ccc(-c2cc3ccccc3oc2=O)cc1", 0.87),
]
